Assay: Phase 1 MAD plasma pharmacokinetics
Format: in vivo, human
Details: human, plasma, oral; steady-state (Day 14), 200 mg QD; geometric mean (% CV); read-out: Ctrough
endpoint_name: concentration at 24 h (ng/mL)
Field: numeric (ng/mL). Do not append units.

Ask | Endpoint output: concentration at 24 h of `Cn1c(=O)n([C@@H]2CCC(=O)NC2=O)c2cccc(C#CCOC3CCN(C[C@H]4CC[C@H](n5cc(NC(=O)c6cnn7ccc(N8C[C@H]9C[C@@H]8CO9)nc67)c(C(F)F)n5)CC4)CC3)c21` . Value?
Reply | 18.8

* * *

Assay: Phase 1 SAD plasma pharmacokinetics
Type: in vivo, human
Settings: human, plasma; SAD 2, single oral dose 75 mg, healthy volunteers
endpoint_name: Tmax (h)
Field: numeric (h). Do not append units.

Ask | Endpoint output: Tmax of Cn1c(=O)n([C@@H]2CCC(=O)NC2=O)c2cccc(C#CCOC3CCN(C[C@H]4CC[C@H](n5cc(NC(=O)c6cnn7ccc(N8C[C@H]9C[C@@H]8CO9)nc67)c(C(F)F)n5)CC4)CC3)c21 [Compound A] . Value?
Reply | 7

// data source = patent US12171768B2
